System: Salmonella typhimurium
Experiment: Antimicrobial activity against Salmonella enterica serovar Typhimurium STYM61/9 expressing qnrB19 gene variant carried by IncL/M-like plasmid by Etest
Format: functional, Salmonella enterica subsp. enterica serovar Typhimurium
Property: MIC; scope: individual compounds
A number alone suffices; assume µg/mL.

Report measured MIC; entry is CC1COc2c(N3CCN(C)CC3)c(F)cc3c(=O)c(C(=O)O)cn1c23 (stereo not given) [OFLOXACIN]
0.75

New cases:
Please indicate MIC recorded for CCn1cc(C(=O)O)c(=O)c2cc(F)c(N3CCNCC3)cc21 [NORFLOXACIN]
1

---

Test system: Salmonella typhimurium
Assay: Antimicrobial activity against Salmonella enterica serovar Typhimurium STYM61/9 expressing qnrB19 gene variant carried by IncL/M-like plasmid by Etest
Assay type: functional, Salmonella enterica subsp. enterica serovar Typhimurium
OUTCOME MEASURE: MIC (µg/mL)
Use µg/mL as the unit, but write only the number.

Look over these answered cases.
Return value of MIC for input `CCn1cc(C(=O)O)c(=O)c2ccc(C)nc21` , no commentary.
12

Supply measured MIC of `O=C(O)c1cn(C2CC2)c2cc(N3CCNCC3)c(F)cc2c1=O` in your reply.
0.38

Next:
Supply reported MIC belonging to this compound: `COc1c(N2C[C@@H]3CCCN[C@@H]3C2)c(F)cc2c(=O)c(C(=O)O)cn(C3CC3)c12`
0.5
